Recorded desArg values for a group of proteins are listed next.
- TESTED_TARGET: pre-pro-insulin glargine
MEASURED_ATTRIBUTE: desArg

{"PROTEIN": "trypsin variant SEQ ID NO: 97 (protein) IVGGYTCAANSIPYQVSLNSGSHRCGGSLINSQWVVSAAHCYKPRIQVRLGEHNIHVLEGNEQFINAAKIITHPNFNPNTLDNDIMLIKLSSPATLNSAVATVSLPTSCAAAGTECLISGWGNTASSGSSMPSLLQCLKAPVLSDSSCKSSYPGQITGNMICVGFLEGGADACQGDSGGPVVCNGQLQGIVSSGYGCAQKNKPGVYTKVCNYVNWIQQTIAAN", "VALUE_REPORTED": "< 0.5 area %"}
{"PROTEIN": "trypsin variant SEQ ID NO: 4 (protein) IVGGYTCAANSIPYQVSLNSGSHRCGGSLINSQWVVSAAHCYKSRIQVRLGEHNIDVLEGNEQFINAAKIITHPNFNGNTLDNDIMLIKLSSPATLNSAVATVSLPRSCAAAGTECLISGWGNTKSSGSSYPSLLQCLKAPVLSDSSCKSSYPGQITGNMICVGFLEGGKDACQGDSGGPVVCNGQLQGIVSSGYGCAQKNKPGVYTKVCNYVNWIQQTIAAN", "VALUE_REPORTED": "< 0.5 area %"}
